Target: Bile acid receptor (Homo sapiens)
Assay: Agonist activity at FXR in HEK293T cells by lanthascreen TR-FRET assay
Format: cell-based
pEC50: −log10 of the molar value.

molecule	measurement_target	pEC50
CCc1onc(-c2c(Cl)cccc2Cl)c1COc1ccc(C2(C)CC2c2ccc(C(=O)O)cc2)c(Cl)c1 (stereo unspecified)	Bile acid receptor (Homo sapiens)	> 7.00

----------
Assay: Oral bioavailability in Sprague-Dawley rat at 5 mg/kg administered via gavage by LC-MS/MS analysis
Format: ADME, organism-based
Conditions: in vivo
endpoint: bioavailability (%)

1. O=C(O)c1ccc2c(c1)Oc1ccc(OCc3c(-c4ccccc4OC(F)(F)F)noc3C3CC3)nc1C1(CC1)C2 71.3

----------
Listed here are molecules together with their documented pEC50.
Biological target: Bile acid receptor (Homo sapiens, UniProt Q96RI1)
Sequence (Q96RI1 whole entry): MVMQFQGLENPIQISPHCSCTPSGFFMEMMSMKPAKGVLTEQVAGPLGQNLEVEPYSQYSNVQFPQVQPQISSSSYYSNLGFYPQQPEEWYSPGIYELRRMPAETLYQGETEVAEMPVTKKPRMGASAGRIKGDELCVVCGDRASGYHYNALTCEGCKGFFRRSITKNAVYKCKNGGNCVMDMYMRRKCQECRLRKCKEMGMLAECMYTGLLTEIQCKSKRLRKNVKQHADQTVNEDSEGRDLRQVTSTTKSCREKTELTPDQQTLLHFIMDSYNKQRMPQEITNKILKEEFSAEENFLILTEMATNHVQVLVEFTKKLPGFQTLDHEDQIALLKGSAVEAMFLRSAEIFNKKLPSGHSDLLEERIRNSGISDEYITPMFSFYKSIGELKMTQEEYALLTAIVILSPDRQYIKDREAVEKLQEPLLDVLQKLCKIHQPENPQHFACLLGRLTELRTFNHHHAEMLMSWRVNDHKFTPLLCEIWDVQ
Experiment: Agonist activity at FXR in HEK293T cells by steady-glo luciferase assay
Format: cell-based
pEC50: −log10 of the molar value.

molecule	pEC50
Cc1cc(OCc2c(-c3c(Cl)cccc3Cl)noc2C2CC2)ccc1C1=NOC(c2cc(C(=O)O)nn2C)C1 (stereo unspecified)	8.00
O=C(O)c1ccc2c(c1)CN(C(=O)N1[C@@H]3CC[C@H]1C[C@@H](OCc1c(-c4c(Cl)cccc4Cl)noc1C1CC1)C3)C2	8.00
Cc1cc(OCc2c(-c3c(Cl)cccc3Cl)noc2C2CC2)ccc1C1=NOC(c2ccc(C(=O)O)nc2)C1 (stereo unspecified)	8.30
CCn1nc(C(=O)O)cc1C1CC(c2ccc(OCc3c(-c4c(Cl)cccc4Cl)noc3C3CC3)cc2C)=NO1 (stereo unspecified)	7.64
O=C(O)c1ccc(-c2csc(N3CCC(OCc4c(-c5c(Cl)cccc5Cl)noc4C4CC4)CC3)n2)cc1	7.92

----------
Biological target: Bile acid receptor (Homo sapiens)
Assay: Agonist activity at FXR in HEK293T cells incubated for 24 hrs by Steady-Glo luciferase assay
Format: cell-based
endpoint: EC50 (nM)

1. CC(C)COc1ccc(-c2nnc(-c3ccc(C(=O)O)cc3)o2)cc1 205

----------
Listed here are compounds together with their documented Activity.
Target: Bile acid receptor (Homo sapiens)
Test: Agonist activity at FXR in human HepG2 cells coexpressing BSEP at 0.3 uM relative to control
Conditions: filed as agonist
endpoint: Activity (%)

compound	readout_unit	assay_result
O=C(O)c1cc(F)c2nc(N3C[C@@H]4CC[C@H]3C[C@@H]4OCc3c(-c4ccccc4OC(F)(F)F)noc3C3CC3)sc2c1	%	84
O=C(O)c1ccc([C@@H]2C[C@H]2c2ccc(OCc3c(-c4c(Cl)cccc4Cl)noc3C3CC3)cc2Cl)cc1	%	60
O=C(O)c1ccc2nc(N3C[C@@H]4C[C@H]3C[C@H]4OCc3c(-c4c(Cl)cccc4Cl)noc3C3CC3)sc2c1	%	166
O=C(O)c1ccc2nc(N3CCC(OCc4c(-c5c(Cl)cccc5Cl)noc4C4CC4)C4CC43)sc2c1 (stereo not given)	%	64
C[C@H]1CC(OCc2c(-c3c(Cl)cccc3Cl)noc2C2CC2)C[C@H](C)N1c1nc2ccc(C(=O)O)cc2s1 (stereo not given in full)	%	100

----------
Assay: AUC(0 to 24 hrs) in Sprague-Dawley rat serum at 5 mg/kg, po measured up to 24 hrs by LC-MS-MS analysis
Format: ADME, organism-based
Design: dose 5 mg/kg, time < 24 hrs, route po
endpoint: AUC(0-t) at 24 h (ng·h/mL)

1. O=C(O)c1ccc(-c2csc(N3CCC(OCc4c(-c5c(Cl)cccc5Cl)noc4C4CC4)CC3)n2)cc1 1180
